# protocol.summary: Metabolic stability in human liver microsomes (Pharmaron)
# test.context: both, human, microsomes

{"columns": ["compound", "microsomal CLint at 1 µM / µL/min/mg"],
 "data": [
  ["C[C@@H](NCCCc1cccc(C(F)(F)F)c1)c1cccc2ccccc12 [Cinacalcet]", 65.6],
  ["C[C@@H](NCCCc1cccc(C(F)(F)F)c1)c1cccc2c1CCCC2 [compound 39]", 66.2]
]}

----------
# protocol.summary: Measurement of LogPo/w (n-octanol/water, RP-HPLC)
# Format: physicochemical
# test.context: measured n-octanol-water partition coefficient, 30 °C, n = 3
Recorded measurements of logP at 24 h, one per entry

{"columns": ["molecule", "logP at 24 h"],
 "data": [
  ["C[C@@H](NCCCc1cccc(C(F)(F)F)c1)c1cccc2ccccc12", 4.61],
  ["CC(C(=O)O)c1ccc(-c2ccccc2)c(F)c1 (stereo not shown)", 1.14],
  ["CCOC(=O)[C@H](C)C[C@@H](Cc1ccc(-c2ccccc2)cc1)NC(=O)CCC(=O)O", 1.47],
  ["CC(C(=O)O)c1ccc(N2Cc3ccccc3C2=O)cc1 (stereo not shown)", 1.02],
  ["CCOC(=O)[C@H](C)C[C@@H](Cc1ccc(C2CCCCC2)cc1)NC(=O)CCC(=O)O", 1.39],
  ["CCCNC(C)C(=O)Nc1ccccc1C (stereo not shown)", 1.02],
  ["COc1ccccc1N1CCN(CC(O)COc2cccc3c2CCCC3)CC1 (stereo not shown)", 2.1],
  ["CCCNC(C)C(=O)NC1CCCCC1C (stereo not shown)", 1.39],
  ["CC(C)NCC(O)COC1CCCC2CCCCC21 (stereo not shown)", 2.62],
  ["CC(C(=O)O)c1ccc(C2CCCCC2)c(F)c1 (stereo not shown)", 1.54],
  ["C[C@@H](NCCCc1cccc(C(F)(F)F)c1)c1cccc2c1CCCC2", 4.79],
  ["CC(C(=O)O)c1ccc(N2C[C@H]3CCCC[C@H]3C2=O)cc1 (stereo partly shown)", 0.813],
  ["COc1ccccc1N1CCN(CC(O)COc2cccc3ccccc23)CC1 (stereo not shown)", 2.04]
]}

----------
# protocol.summary: Measurement of LogPo/w (n-octanol/water, RP-HPLC)
# Type: physicochemical
# test.context: water phase, n-octanol/water 1:1, 30 °C, 24 h, n = 3
Short version: C(aqueous) at least 0.07 mg/mL is y, less is n.

{"columns": ["molecule", "label.value"],
 "data": [
  ["CC(C(=O)O)c1ccc(N2C[C@H]3CCCC[C@H]3C2=O)cc1 (some centres unmarked) [compound 37]", "y"],
  ["CC(C)NCC(O)COc1cccc2ccccc12 (centres unmarked) [Propranolol]", "n"],
  ["CCCNC(C)C(=O)NC1CCCCC1C (centres unmarked) [compound 15]", "n"],
  ["COc1ccccc1N1CCN(CC(O)COc2cccc3ccccc23)CC1 (centres unmarked) [Naftopidil]", "n"]
]}

----------
# protocol.summary: Measurement of LogPo/w (n-octanol/water, RP-HPLC)
# Type: physicochemical
# test.context: n-octanol phase, n-octanol/water 1:1, 30 °C, 24 h, n = 3
Recorded measurements of C(oil), one per entry
assay.metric: C(oil) (mg/mL)

{"columns": ["compound", "assay.metric", "recorded.measurement"],
 "data": [
  ["CCOC(=O)[C@H](C)C[C@@H](Cc1ccc(C2CCCCC2)cc1)NC(=O)CCC(=O)O", "C(oil)", 0.737],
  ["CC(C(=O)O)c1ccc(N2Cc3ccccc3C2=O)cc1 (stereo not shown)", "C(oil)", 0.943],
  ["CC(C)NCC(O)COC1CCCC2CCCCC21 (stereo not shown)", "C(oil)", 2.697],
  ["COc1ccccc1N1CCN(CC(O)COc2cccc3c2CCCC3)CC1 (stereo not shown)", "C(oil)", 1.761],
  ["CCCNC(C)C(=O)Nc1ccccc1C (stereo not shown)", "C(oil)", 1.306],
  ["CC(C(=O)O)c1ccc(C2CCCCC2)c(F)c1 (stereo not shown)", "C(oil)", 2.453],
  ["C[C@@H](NCCCc1cccc(C(F)(F)F)c1)c1cccc2c1CCCC2", "C(oil)", 9.541],
  ["CC(C(=O)O)c1ccc(-c2ccccc2)c(F)c1 (stereo not shown)", "C(oil)", 1.858],
  ["CC(C(=O)O)c1ccc(N2C[C@H]3CCCC[C@H]3C2=O)cc1 (stereo partly shown)", "C(oil)", 0.897],
  ["CCOC(=O)[C@H](C)C[C@@H](Cc1ccc(-c2ccccc2)cc1)NC(=O)CCC(=O)O", "C(oil)", 1.368]
]}
